- System: Gp90 D234A (DNA polymerase, exonuclease-deficient) (Pseudomonas aeruginosa phage PaP1)
- measurementProtocol: SPR
- testContext: no Mg2+, no dNTP (binary complex); primer 3'-terminal dideoxycytidine (ddC, chain terminator); SPR (Biacore 3000, SA chip, steady-state fit): 40 mM Tris-HCl pH 7.5, 10 mM DTT, 50 mM potassium glutamate, room temperature; 20-600 nM protein; ternary assays …
readoutName: pKd
One number for each entry, as −log10 of the molar value.

What value of pKd has been recorded for this entry: TTTGCTACAGAGTTATGGTGACGATACGTC / TGAATTCTAATGTAGTATAGTAATCCGCTCTATCGGACGTATCGTCACCATAACTCTGTAGC [30-mer(dd)/62-mer G primer-template]
6.97
